tested on: Psdm. aerug. F 41; assay: MIC, test tube series dilution test, Psdm. aerug. F 41; assay type: cell-based, Pseudomonas aeruginosa; conditions: Psdm. aerug. F 41; 24 hours, 37°C
Item-by-item account of MIC
I only need the number, in U/ml, no unit after it.

Observe how each entry below is paired with its result.
Incoming: Which MIC is reported with Psdm. aerug. F 41 for this entry: CC1(C)S[C@@H]2[C@H](NC(=O)[C@H](NC(=O)c3ccc(N)cc3)c3ccccc3)C(=O)N2[C@H]1C(=O)O [Example 34] ?
Outgoing: 64

Incoming: Find the measured MIC: item CC1(C)S[C@@H]2[C@H](NC(=O)[C@H](NC(=O)c3ccc(NC(=O)C4=CCCCC4)cc3)c3ccccc3)C(=O)N2[C@H]1C(=O)O [Example 11] , target or system Psdm. aerug. F 41.
Outgoing: 32

Now, please, on to the next compound.
Incoming: Param readout = MIC; param system = Psdm. aerug. F 41; param query = CNC(=S)Nc1ccc(C(=O)N[C@@H](C(=O)N[C@@H]2C(=O)N3[C@@H]2SC(C)(C)[C@@H]3C(=O)O)c2ccccc2)cc1 [Example 47] ; response: value
Outgoing: 64

* * *

tested on: Klebsiella K 10; assay: MIC, test tube series dilution test, Klebsiella K 10; format: cell-based; conditions: 24 hours, 37°C
Catalogue of compounds with associated MIC
Respond numerically; units are U/ml and should not be typed.

Below, 3 compounds whose answers are already recorded.
Incoming: Please look up its MIC: CC1(C)S[C@@H]2[C@H](NC(=O)[C@H](NC(=O)c3ccc(NC(=O)c4ccc(N)cc4)cc3)c3ccccc3)C(=O)N2[C@H]1C(=O)O
Outgoing: 128

Incoming: Suppose we examine the compound CC1(C)S[C@@H]2[C@H](NC(=O)[C@H](NC(=O)c3ccc(NC(=O)CC4C=CCC4)cc3)c3ccccc3)C(=O)N2[C@H]1C(=O)[O-].[Na+] (stereo partly drawn) ; what MIC value has been reported?
Outgoing: 64

Incoming: // returns reported MIC for input CC1(C)S[C@@H]2[C@H](NC(=O)[C@H](NC(=O)c3ccc(NC(=O)C=Cc4ccccc4)cc3)c3ccccc3)C(=O)N2[C@H]1C(=O)O
Outgoing: 16

***
Incoming: Could you share which MIC value was measured for CC1(C)S[C@@H]2[C@H](NC(=O)[C@H](NC(=O)c3ccc(NC(=O)CCN=[N+]=[N-])cc3)c3ccccc3)C(=O)N2[C@H]1C(=O)O ?
Outgoing: 128

Incoming: What value of MIC has been recorded for this entry: CNC(=S)Nc1ccc(C(=O)N[C@@H](C(=O)N[C@@H]2C(=O)N3[C@@H]2SC(C)(C)[C@@H]3C(=O)O)c2ccccc2)cc1
Outgoing: 256

Incoming: MIC lookup needed for CC1(C)S[C@@H]2[C@H](NC(=O)[C@H](NC(=O)c3ccc(NC=O)cc3)c3ccccc3)C(=O)N2[C@H]1C(=O)O , thanks.
Outgoing: 128

Incoming: Look up MIC: CC1(C)S[C@@H]2[C@H](NC(=O)[C@H](NC(=O)c3ccc(NC(=O)C4CC4)cc3)c3ccccc3)C(=O)N2[C@H]1C(=O)O
Outgoing: 64

Incoming: Query (compound): CC1(C)S[C@@H]2[C@H](NC(=O)[C@H](NC(=O)c3ccc(NC(=O)c4ccccc4)cc3)c3ccccc3)C(=O)N2[C@H]1C(=O)O ; field requested: MIC
Outgoing: 64

Incoming: So what does the record say about MIC for CC1(C)S[C@@H]2[C@H](NC(=O)[C@H](NC(=O)c3ccc(NC(=O)c4ccc(N=[N+]=[N-])cc4)cc3)c3ccccc3)C(=O)N2[C@H]1C(=O)O ?
Outgoing: 16

Incoming: I'd like to know its MIC. The compound in question is CNC(=O)Nc1ccc(C(=O)N[C@@H](C(=O)N[C@@H]2C(=O)N3[C@@H]2SC(C)(C)[C@@H]3C(=O)O)c2ccccc2)cc1
Outgoing: 256

* * *

Collected MIC values appear next to each entry.
tested on: Proteus morg. 932; experiment: MIC, test tube series dilution test, Proteus morg. 932; type: cell-based; conditions: 24 hours, 37°C
Field format: number, assumed U/ml, no unit text.

Incoming: Quick one: MIC for CC1(C)S[C@@H]2[C@H](NC(=O)[C@H](NC(=O)c3ccc(NC(=O)c4ccc([N+](=O)[O-])cc4)cc3)c3ccccc3)C(=O)N2[C@H]1C(=O)O ?
Outgoing: 128

Incoming: Give its MIC value. Item: CC1(C)S[C@@H]2[C@H](NC(=O)[C@H](NC(=O)c3ccc(NC(=O)c4ccc(N=[N+]=[N-])cc4)cc3)c3ccccc3)C(=O)N2[C@H]1C(=O)O
Outgoing: 8

Incoming: So what's the measured MIC for this one? CC1(C)S[C@@H]2[C@H](NC(=O)[C@H](NC(=O)c3ccc(NC(=O)C4CCC=CCC4)cc3)c3ccccc3)C(=O)N2[C@H]1C(=O)O
Outgoing: 256

Incoming: Fill in: MIC of CC1(C)S[C@@H]2[C@H](NC(=O)[C@H](NC(=O)c3ccc([N+](=O)[O-])cc3)c3ccccc3)C(=O)N2[C@H]1C(=O)O is ___
Outgoing: 256

Please find the next compound below.
Incoming: Item CC1(C)S[C@@H]2[C@H](NC(=O)[C@H](NC(=O)c3ccc(NC(=O)c4ccc(F)cc4)cc3)c3ccccc3)C(=O)N2[C@H]1C(=O)O has what recorded MIC?
Outgoing: 128

* * *

Consider the following compounds and their measured MIC readings.
test system: Klebsiella K 10; experiment: MIC, test tube series dilution test, Klebsiella K 10; type: cell-based; conditions: 24 hours, 37°C
Give just the number in U/ml; leave the unit off.

Incoming: // lookup MIC | system=Klebsiella K 10 | key= CC1(C)S[C@@H]2[C@H](NC(=O)[C@H](NC(=O)c3ccc(NC(=O)CN=[N+]=[N-])cc3)c3ccccc3)C(=O)N2[C@H]1C(=O)O
Outgoing: 128

Incoming: Request: MIC, test system Klebsiella K 10, entry CC1(C)S[C@@H]2[C@H](NC(=O)[C@H](NC(=O)CNC(=O)c3ccc(NC(=O)C4CC4)cc3)c3ccccc3)C(=O)N2[C@H]1C(=O)O
Outgoing: 128

Continuing:
Incoming: Form field - read-out: MIC; system: Klebsiella K 10; submitted item: CC1(C)S[C@@H]2[C@H](NC(=O)[C@H](NC(=O)CNC(=O)c3ccc(NC(=O)C4CCCC4)cc3)c3ccccc3)C(=O)N2[C@H]1C(=O)O
Outgoing: 64

Incoming: State its MIC on Klebsiella K 10: CC1(C)S[C@@H]2[C@H](NC(=O)[C@H](NC(=O)c3ccc(N)cc3)c3ccccc3)C(=O)N2[C@H]1C(=O)O
Outgoing: 256

* * *

tested on: E. coli 183/58; assay: MIC, test tube series dilution test, E. coli 183/58; type: cell-based; settings: 24 hours, 37°C
property_label: MIC (U/ml)
# number only, unit U/ml dropped from output

Incoming: For CC1(C)S[C@@H]2[C@H](NC(=O)[C@H](NC(=O)c3ccc(NC(=O)CN=[N+]=[N-])cc3)c3ccccc3)C(=O)N2[C@H]1C(=O)O [Example 36] , what is its reported MIC?
Outgoing: 32

Next:
Incoming: Would you kindly share the measured MIC for COc1ccc(C(=O)Nc2ccc(C(=O)N[C@@H](C(=O)N[C@@H]3C(=O)N4[C@@H]3SC(C)(C)[C@@H]4C(=O)O)c3ccccc3)cc2)cc1 [Example 16] ?
Outgoing: 8

Incoming: Please look up its MIC: CC1(C)S[C@@H]2[C@H](NC(=O)[C@H](NC(=O)c3ccc(NC(=O)C4=CCCCC4)cc3)c3ccccc3)C(=O)N2[C@H]1C(=O)O [Example 11]
Outgoing: 8

Incoming: For CC1(C)S[C@@H]2[C@H](NC(=O)[C@H](NC(=O)c3ccc(NC(=O)C4CC=CCC4)cc3)c3ccccc3)C(=O)N2[C@H]1C(=O)O (single isomer, unassigned) [Example 12] , what is its reported MIC?
Outgoing: 16

Incoming: Consider the compound shown here: CC1(C)S[C@@H]2[C@H](NC(=O)[C@H](N)c3ccccc3)C(=O)N2[C@H]1C(=O)O [Ampicillin, D(-)-α-aminobenzylpenicillin, reference compound] What is its recorded MIC?
Outgoing: 200

Incoming: So what's the measured MIC for this one? CC1(C)S[C@@H]2[C@H](NC(=O)[C@H](NC(=O)c3ccc([N+](=O)[O-])cc3)c3ccccc3)C(=O)N2[C@H]1C(=O)O [Example 33]
Outgoing: 32

Incoming: Need MIC, item CC(N=[N+]=[N-])C(=O)Nc1ccc(C(=O)N[C@@H](C(=O)N[C@@H]2C(=O)N3[C@@H]2SC(C)(C)[C@@H]3C(=O)O)c2ccccc2)cc1 (some centres unmarked) [Example 37]
Outgoing: 16

* * *

MIC overview
system: Staph. aureus 1756; assay: MIC, test tube series dilution test, Staph. aureus 1756; type: cell-based, Staphylococcus aureus; details: Staph. aureus 1756; 24 hours, 37°C
Write the value in U/ml as a bare number.

Before answering, review these 5 worked examples.
Incoming: Kindly state the measured MIC obtained for CC1(C)S[C@@H]2[C@H](NC(=O)[C@H](NC(=O)c3ccc(NC(=O)c4ccc(N=[N+]=[N-])cc4)cc3)c3ccccc3)C(=O)N2[C@H]1C(=O)O with Staph. aureus 1756.
Outgoing: 64

Incoming: Param readout= MIC; system= Staph. aureus 1756; entry= CC1(C)S[C@@H]2[C@H](NC(=O)[C@H](NC(=O)CNC(=O)c3ccc(NC(=O)C4CCCC4)cc3)c3ccccc3)C(=O)N2[C@H]1C(=O)O ; returns value.
Outgoing: 32

Incoming: Param readout = MIC; param system = Staph. aureus 1756; param query = CC1(C)S[C@@H]2[C@H](NC(=O)[C@H](NC(=O)c3ccc(NC(=O)C4CCC4)cc3)c3ccccc3)C(=O)N2[C@H]1C(=O)O ; response: value
Outgoing: 32

Incoming: What reported MIC corresponds to CC1(C)S[C@@H]2[C@H](NC(=O)[C@H](NC(=O)c3ccc(NC(=O)CCN=[N+]=[N-])cc3)c3ccccc3)C(=O)N2[C@H]1C(=O)O on Staph. aureus 1756?
Outgoing: 32

Incoming: Please tell me: MIC of CC1(C)S[C@@H]2[C@H](NC(=O)[C@H](NC(=O)c3ccc([N+](=O)[O-])cc3)c3ccccc3)C(=O)N2[C@H]1C(=O)O , system Staph. aureus 1756?
Outgoing: 32

Others:
Incoming: Notebook: pull reported MIC for Staph. aureus 1756, entry CC(N=[N+]=[N-])C(=O)Nc1ccc(C(=O)N[C@@H](C(=O)N[C@@H]2C(=O)N3[C@@H]2SC(C)(C)[C@@H]3C(=O)O)c2ccccc2)cc1 (stereo partly drawn)
Outgoing: 64
